FYI, the data here is from patent US7078537B2.

biological target: sigma-1 receptor (Cavia porcellus); construct: their whole brains (without cerebellum) were rapidly removed and homogenized; from tissue; host or cells: guinea pig (male Hartley) whole brain without cerebellum, membrane homogenate; test: Sigma-1 binding assay ([3H](+)-pentazocine); settings: inhibition % at 10 nM; guinea pig brain membranes, [3H](+)-pentazocine; Table II; read-out: Sigma 1 Inhib. %
Parameter: inhibition at 0.01 µM (%)
Numbers only, in %.

O=CNC(Cc1ccc(Cl)c(Cl)c1)CN1CCCCCC1 (centres unmarked): 67.7
NC(CCN1CCC(C(=O)c2ccc(Cl)cc2)CC1)c1ccccc1 (centres unmarked): 7.9
N[C@@H](Cc1ccccc1)CN1CCC(C(=O)c2cccc(Cl)c2)CC1: 82.9
CNC(Cc1ccc(C(C)(C)C)cc1)CN1CCC(Cc2ccccc2)CC1 (centres unmarked): 63.2
O=CNC(Cc1ccc(Cl)cc1Cl)CN1CCC(Cc2ccccc2)CC1 (centres unmarked): 74.5

Kindly give each listed record's inhibition at 0.01 µM.
1. NC(Cc1ccc(Cl)cc1)CN1CCC(C(=O)c2cccc(Cl)c2)CC1 (centres unmarked)
2. CC(C)(C)c1ccc(CC(N)CN2CCC(C(=O)c3ccccc3)CC2)cc1 (centres unmarked)
3. O=CNC(CCN1CCC(Cc2ccccc2)CC1)c1ccccc1 (centres unmarked)

1. 34.5
2. 47.4
3. 28.2

###

Biological target: sigma-2 receptor (Cavia porcellus, UniProt H0V073)
Construct: their whole brains (without cerebellum) were rapidly removed and homogenized; from tissue; host or cells: guinea pig (male Hartley) whole brain without cerebellum, membrane homogenate
Sequence (H0V073 1-176): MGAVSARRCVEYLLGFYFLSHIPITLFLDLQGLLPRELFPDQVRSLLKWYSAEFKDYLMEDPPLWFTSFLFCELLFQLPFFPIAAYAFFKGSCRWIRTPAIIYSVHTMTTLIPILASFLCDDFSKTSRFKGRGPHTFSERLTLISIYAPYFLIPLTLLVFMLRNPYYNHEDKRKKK
Test: Sigma-2 binding assay ([3H]DTG in the presence of (+)-SKF10047)
Conditions: inhibition % at 10 nM; guinea pig brain membranes, [3H]DTG; Table II; read-out: Sigma 2 Inhib. %
What inhibition at 0.01 µM was measured for each of the following?
Give bare numbers, in %.

Use the examples below as a reference point.
COc1ccc(C(=O)C2CCN(C[C@@H](N)Cc3ccccc3)CC2)cc1: 39.8
NC(Cc1ccc(Cl)cc1)CN1CCC(C(=O)c2cccc(Cl)c2)CC1 (stereo not shown): 41.6
O=[N+]([O-])c1cccc(S(=O)(=O)NC(CCN2CCC(Cc3ccccc3)CC2)c2ccccc2)c1 (stereo not shown): 25.7
CC(C)(C)c1ccc(CC(CN2CCC(Cc3ccccc3)CC2)NC=O)cc1 (stereo not shown): 6.1

Kindly give each listed record's inhibition at 0.01 µM.
1. O=CNC(CCN1CCC(Cc2ccccc2)CC1)c1ccccc1 (stereo not shown)
2. CNC(Cc1ccc(C(C)(C)C)cc1)CN1CCC(Cc2ccccc2)CC1 (stereo not shown)
3. CC(C)(C)c1ccc(C(=O)C2CCN(C[C@@H](N)Cc3ccccc3)CC2)cc1
4. NC(Cc1ccc(Cl)cc1)CN1CCC(C(=O)c2ccc(F)cc2)CC1 (stereo not shown)
5. CC(C)(C)c1ccc(CC(N)CN2CCC(C(=O)c3ccccc3)CC2)cc1 (stereo not shown)
6. COc1ccc(C(=O)C2CCN(CC(N)Cc3ccc(Cl)cc3)CC2)cc1 (stereo not shown)

[26.3, 57.9, 43.1, 48.5, 30, 31]

###

target: sigma-2 receptor (Cavia porcellus); construct: their whole brains (without cerebellum) were rapidly removed and homogenized; from tissue; host or cells: guinea pig (male Hartley) whole brain without cerebellum, membrane homogenate; assay: Sigma-2 binding assay ([3H]DTG in the presence of (+)-SKF10047); settings: inhibition % at 10 nM; guinea pig brain membranes, [3H]DTG; Table II; read-out: Sigma 2 Inhib. %
What inhibition at 0.01 µM was measured for each of the following?
Answers are plain numbers, in %.

Use the examples below as a reference point.
NC(CCCCN1CCCCCC1)c1ccccc1 (centres unmarked): 32.5
NC(Cc1ccc(Cl)c(Cl)c1)CN1CCC(C(=O)c2ccc(Cl)c(Cl)c2)CC1 (centres unmarked): 47.2
CN(C=O)C(CCN1CCC(Cc2ccccc2)CC1)c1ccccc1 (centres unmarked): 26.4
CC(C)(C)c1ccc(CC(N)CN2CCC(Cc3ccccc3)CC2)cc1 (centres unmarked): 38.2
NC(Cc1c(Cl)cccc1Cl)CN1CCCCCC1 (centres unmarked): 21.7

Kindly give each listed record's inhibition at 0.01 µM.
1. O=S(=O)(NC(CCN1CCC(Cc2ccccc2)CC1)c1ccccc1)c1ccccc1 (centres unmarked)
2. N[C@@H](Cc1ccccc1)CN1CCC(C(=O)c2ccc(F)cc2)CC1

11.4
61.1

Kindly give each listed record's inhibition at 0.01 µM.
1. CNC(CCN1CCC(Cc2ccccc2)CC1)c1ccccc1 (centres unmarked)
2. NC(Cc1ccc(Cl)cc1Cl)CN1CCCCCC1 (centres unmarked)
3. N[C@@H](Cc1ccccc1)CN1CCC(C(=O)c2ccccc2)CC1
4. CNC(Cc1ccc(Cl)cc1Cl)CN1CCC(Cc2ccccc2)CC1 (centres unmarked)
5. N[C@@H](Cc1ccccc1)CN1CCC(C(=O)c2ccc(Cl)cc2)CC1
6. O=[N+]([O-])c1ccccc1S(=O)(=O)NC(CCN1CCC(Cc2ccccc2)CC1)c1ccccc1 (centres unmarked)
7. CNC(Cc1ccc(Cl)c(Cl)c1)CN1CCC(Cc2ccccc2)CC1 (centres unmarked)

54.1
61
33.3
75
53.6
3.1
72.7

Kindly give each listed record's inhibition at 0.01 µM.
1. NC(CCCN1CCCCCC1)c1ccccc1 (centres unmarked)
2. NC(Cc1ccc(Cl)cc1Cl)CN1CCC(C(=O)c2ccccc2)CC1 (centres unmarked)
3. N[C@@H](Cc1ccccc1)CN1CCC(C(=O)c2cccc(Cl)c2)CC1

1. 21.6
2. 34.7
3. 73

###

target: sigma-1 receptor (Cavia porcellus, UniProt Q60492); construct: their whole brains (without cerebellum) were rapidly removed and homogenized; assay: Sigma-1 binding assay ([3H](+)-pentazocine); conditions: guinea pig brain membranes, [3H](+)-pentazocine 2.4 nM; Table I
Sequence (Q60492 whole entry): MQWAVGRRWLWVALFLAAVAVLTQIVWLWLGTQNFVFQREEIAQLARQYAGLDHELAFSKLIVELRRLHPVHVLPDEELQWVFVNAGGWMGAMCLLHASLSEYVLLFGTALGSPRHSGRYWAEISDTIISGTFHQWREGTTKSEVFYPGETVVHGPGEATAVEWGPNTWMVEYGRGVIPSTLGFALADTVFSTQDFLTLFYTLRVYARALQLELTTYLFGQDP
What IC50 was measured for each of the following?

Kindly give each listed record's IC50.
1. NC(Cc1ccc(Cl)cc1)CN1CCCCCC1 (centres unmarked)
2. CC(C)(C)c1ccc(CC(CN2CCCCCC2)NCc2ccccc2)cc1 (centres unmarked)
3. NC(Cc1ccc(Cl)c(Cl)c1)CN1CCCCCC1 (centres unmarked)
4. Clc1ccc(CCNC(CCN2CCCCCC2)c2ccccc2)cc1Cl (centres unmarked)
5. O=C(Cc1ccc(Cl)c(Cl)c1)NC(CCN1CCCCCC1)c1ccccc1 (centres unmarked)

1. 0.0139 µM
2. 0.01 µM
3. 0.0121 µM
4. 0.0102 µM
5. 0.0108 µM

###

biological target: sigma-2 receptor (Cavia porcellus); construct: their whole brains (without cerebellum) were rapidly removed and homogenized; from tissue; host or cells: guinea pig (male Hartley) whole brain without cerebellum, membrane homogenate; assay: Sigma-2 binding assay ([3H]DTG in the presence of (+)-SKF10047); details: inhibition % at 10 nM; guinea pig brain membranes, [3H]DTG; Table II; read-out: Sigma 2 Inhib. %
Assign classes using reported inhibition at 0.01 µM values and the ranges low bracket = under 30%, middle bracket = from 30% up to 50%, high bracket = 50% and over, please.

Would you please look over these solved cases?
NC(Cc1cccc(C(F)(F)F)c1)CN1CCCCCC1 (stereo not drawn): middle bracket
O=[N+]([O-])c1ccc(S(=O)(=O)NC(CCN2CCC(Cc3ccccc3)CC2)c2ccccc2)c([N+](=O)[O-])c1 (stereo not drawn): middle bracket
N[C@@H](Cc1ccccc1)CN1CCC(C(=O)c2ccc(Cl)c(Cl)c2)CC1: high bracket
O=CNC(Cc1ccc(Cl)cc1Cl)CN1CCC(Cc2ccccc2)CC1 (stereo not drawn): low bracket
NC(Cc1ccc(Cl)cc1)CN1CCC(C(=O)c2ccc(Cl)c(Cl)c2)CC1 (stereo not drawn): high bracket
NC(Cc1ccc(Cl)cc1Cl)CN1CCC(Cc2ccccc2)CC1 (stereo not drawn): middle bracket
N[C@@H](Cc1ccccc1)CN1CCC(C(=O)Cc2ccccc2)CC1: low bracket
NC(Cc1ccccc1)CN1CCC(C(=O)c2ccccc2)CC1 (stereo not drawn): middle bracket

Consider the additional molecule presented here.
Note: place this molecule into its band. Item: `N[C@H](Cc1ccccc1)CN1CCC(C(=O)c2ccccc2)CC1`
low bracket

###

What inhibition at 0.01 µM was measured for each of the following?
molecular target: sigma-2 receptor (Cavia porcellus, UniProt H0V073); construct: their whole brains (without cerebellum) were rapidly removed and homogenized; from tissue; host or cells: guinea pig (male Hartley) whole brain without cerebellum, membrane homogenate; experiment: Sigma-2 binding assay ([3H]DTG in the presence of (+)-SKF10047); details: inhibition % at 10 nM; guinea pig brain membranes, [3H]DTG; Table II; read-out: Sigma 2 Inhib. %
Give bare numbers, in %.

O=C(NC(CCN1CCC(Cc2ccccc2)CC1)c1ccccc1)c1ccccc1 (stereo not drawn): 5.2
NC(Cc1ccc(Cl)cc1)CN1CCC(C(=O)c2ccc(Cl)cc2)CC1 (stereo not drawn): 34.9

Switching to the query record.
Quick note, inhibition at 0.01 µM for CN(C)C(CCN1CCC(Cc2ccccc2)CC1)c1ccccc1 (stereo not drawn) landed at 57.7
